- Target under test: T1, human Y2 receptor (human, UniProt P49146 1-381)
- T1 construct: whole, on cells; used as membrane fraction of hY2R/CHO cells; also called human NPY2R; hY2R
- T1 sequence (looked up): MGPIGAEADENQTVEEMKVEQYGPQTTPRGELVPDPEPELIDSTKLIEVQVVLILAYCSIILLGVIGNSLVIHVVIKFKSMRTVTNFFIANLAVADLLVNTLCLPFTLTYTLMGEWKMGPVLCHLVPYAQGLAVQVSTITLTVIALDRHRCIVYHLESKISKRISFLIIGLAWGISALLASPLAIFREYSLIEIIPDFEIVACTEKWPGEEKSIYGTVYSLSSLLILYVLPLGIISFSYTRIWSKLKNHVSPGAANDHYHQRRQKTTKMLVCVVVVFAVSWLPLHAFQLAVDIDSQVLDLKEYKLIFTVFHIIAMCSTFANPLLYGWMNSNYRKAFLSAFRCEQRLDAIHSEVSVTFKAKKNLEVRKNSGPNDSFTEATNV
- Assay explanation: RBA: [125I]-PYY displacement, hY2R/CHO membranes
Non-standard residues stand in square brackets, D forms with d. Cha = N[C@@H](CC1CCCCC1)C(=O)O; Aib = CC(C)(N)C(=O)O
Measured metric: IC50 Ratio (vs PYY(3-36)) (ratio)
All answers are understood in ratio, so give the number only.

Value of IC50 Ratio (vs PYY(3-36)) reported for the binder Ac-E[dP]RH[Cha][Aib]NK[Aib]TRQR[Cha]-NH2 (SMILES CC(=O)N[C@@H](CCC(=O)O)C(=O)N1CCC[C@@H]1C(=O)N[C@@H](CCCNC(=N)N)C(=O)N[C@@H](Cc1c[nH]cn1)C(=O)N[C@@H](CC1CCCCC1)C(=O)NC(C)(C)C(=O)N[C@@H](CC(N)=O)C(=O)N[C@@H](CCCCN)C(=O)NC(C)(C)C(=O)N[C@H](C(=O)N[C@@H](CCCNC(=N)N)C(=O)N[C@@H](CCC(N)=O)C(=O)N[C@@H](CCCNC(=N)N)C(=O)N[C@@H](CC1CCCCC1)C(N)=O)[C@@H](C)O, also called compound No. 171) [Ac-[Glu23, D-Pro24, Cha27,36, Aib28,31, Lys30]-PYY(23-36)] is 2.9
